- ASSAYED_TARGET: angiotensin-converting enzyme (ACE) (Oryctolagus cuniculus)
- Sequence (P12822 34-1310): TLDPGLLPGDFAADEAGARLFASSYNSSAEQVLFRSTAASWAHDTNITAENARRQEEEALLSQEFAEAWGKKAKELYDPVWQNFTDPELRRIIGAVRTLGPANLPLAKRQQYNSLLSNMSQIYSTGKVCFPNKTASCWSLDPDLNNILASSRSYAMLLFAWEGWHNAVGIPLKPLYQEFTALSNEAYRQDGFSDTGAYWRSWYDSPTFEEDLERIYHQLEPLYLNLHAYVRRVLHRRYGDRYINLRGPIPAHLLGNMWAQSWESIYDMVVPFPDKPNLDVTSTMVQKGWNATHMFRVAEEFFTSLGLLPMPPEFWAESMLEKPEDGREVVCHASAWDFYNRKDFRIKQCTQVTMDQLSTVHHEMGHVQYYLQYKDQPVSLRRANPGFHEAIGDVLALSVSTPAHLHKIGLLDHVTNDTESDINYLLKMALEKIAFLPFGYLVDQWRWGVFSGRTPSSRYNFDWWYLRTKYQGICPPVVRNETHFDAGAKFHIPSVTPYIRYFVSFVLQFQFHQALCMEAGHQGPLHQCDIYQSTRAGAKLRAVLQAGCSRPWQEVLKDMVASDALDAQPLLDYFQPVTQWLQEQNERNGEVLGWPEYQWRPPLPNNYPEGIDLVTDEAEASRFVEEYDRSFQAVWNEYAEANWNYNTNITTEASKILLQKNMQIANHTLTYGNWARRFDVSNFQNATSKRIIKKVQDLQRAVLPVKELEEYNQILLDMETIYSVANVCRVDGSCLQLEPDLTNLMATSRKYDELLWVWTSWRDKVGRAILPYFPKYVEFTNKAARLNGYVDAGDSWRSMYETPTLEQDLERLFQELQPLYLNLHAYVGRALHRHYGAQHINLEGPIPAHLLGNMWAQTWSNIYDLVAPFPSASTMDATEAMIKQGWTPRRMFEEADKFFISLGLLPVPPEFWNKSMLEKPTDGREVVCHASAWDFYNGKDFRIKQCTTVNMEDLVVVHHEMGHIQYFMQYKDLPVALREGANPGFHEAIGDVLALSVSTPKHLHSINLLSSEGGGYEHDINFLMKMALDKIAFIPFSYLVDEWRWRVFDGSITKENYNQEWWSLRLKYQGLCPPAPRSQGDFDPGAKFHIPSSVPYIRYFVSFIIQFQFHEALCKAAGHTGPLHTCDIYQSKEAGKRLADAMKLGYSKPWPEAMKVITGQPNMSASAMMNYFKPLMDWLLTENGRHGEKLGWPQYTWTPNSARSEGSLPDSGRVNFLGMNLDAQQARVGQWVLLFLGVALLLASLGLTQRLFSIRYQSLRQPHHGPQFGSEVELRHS
- METHOD_SUMMARY: in vitro inhibition of angiotensin-converting enzyme (ACE)
- Type: biochemical

STRUCTURE_SMILES	IC50
COc1ccc(C[C@H](NC(=O)C2(NC(=O)[C@@H](S)C(C)C)CCCC2)C(=O)O)cc1	~19 nM
